target: full length recombinant Pim-1 protein (Homo sapiens); construct: by full length recombinant Pim-1, Pim-2, or Pim-3 protein; hexahistidine tag followed by a thrombin cleavage site (N); made in house; host or cells: Sf9 (baculovirus) or E. coli (pET28); assay: Pim-1 enzyme assay (HTRF, phosphorylation of biotinylated-BAD (S112) peptide); format: biochemical; conditions: read-out: Pim_1_IC50
Sequence (P11309 whole entry): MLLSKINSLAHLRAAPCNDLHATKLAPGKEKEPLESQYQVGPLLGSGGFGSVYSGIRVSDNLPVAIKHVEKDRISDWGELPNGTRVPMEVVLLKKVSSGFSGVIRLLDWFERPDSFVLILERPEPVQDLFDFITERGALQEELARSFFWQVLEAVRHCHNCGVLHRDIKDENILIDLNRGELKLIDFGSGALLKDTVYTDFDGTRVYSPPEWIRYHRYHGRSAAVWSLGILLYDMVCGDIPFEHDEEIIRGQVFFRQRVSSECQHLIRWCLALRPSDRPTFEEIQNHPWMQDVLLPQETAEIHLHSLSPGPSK
The reader will find reported IC50 values listed item by item below.
Measured Attribute: IC50 (nM)

1) CC1CNCC(Oc2cncc(-c3n[nH]c4ccc(-c5c(F)cccc5F)cc34)n2)C1 (single isomer, unassigned) [Example 469]
2
2) CC(C)Oc1cncc(-c2ccc3[nH]cc(-c4nnc(Nc5ccccc5)o4)c3c2)n1
359
3) COC(=O)c1ccc2[nH]nc(-c3nccc(NC4CCNCC4)n3)c2c1
26
4) COc1ccc(-c2ccc3[nH]cc(-c4cncc(O[C@@H]5CCCNC5)n4)c3c2)cc1F
4
5) CC(O)c1cccc(-c2ccc3[nH]nc(-c4cncc(O[C@@H]5CCCNC5)n4)c3c2)c1 (stereo partly shown)
14
6) CC(C)Oc1cncc(-c2ccc3[nH]cc(-c4nnc(N5CCC[C@H](N)C5)o4)c3c2)n1
17
7) Fc1cccc(F)c1-c1ccc2[nH]nc(-c3cncc(SC4CCCNC4)n3)c2c1 (single isomer, unassigned) [Example 415]
28
